The following compounds are listed with their measured IC50 values.
system tested: KMT9 (Homo sapiens, UniProt Q9Y5N5)
Sequence (Q9Y5N5 1-214): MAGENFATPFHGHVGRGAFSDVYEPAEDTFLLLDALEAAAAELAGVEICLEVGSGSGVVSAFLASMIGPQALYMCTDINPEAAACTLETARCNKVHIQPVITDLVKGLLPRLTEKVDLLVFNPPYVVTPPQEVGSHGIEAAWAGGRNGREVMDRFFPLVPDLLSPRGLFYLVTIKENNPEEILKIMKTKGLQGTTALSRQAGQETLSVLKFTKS
Sequence (Q9UI30 1-120 isoform Q9UI30-2 partner): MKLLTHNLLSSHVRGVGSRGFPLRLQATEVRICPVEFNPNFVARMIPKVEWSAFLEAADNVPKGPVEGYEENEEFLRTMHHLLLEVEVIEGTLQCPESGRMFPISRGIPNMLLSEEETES
assay method text: KMT9 methyltransferase inhibition assay, MTaseGlo luminescence (from entry 155)
Format: biochemical
reported conditions: MTaseGlo procedure (entries from 155); 100 nM KMT9, 5 μM ETF1, 1 μM SAM; read-out: Inhibition (IC50)

Observe how each entry below is paired with its result.
INSERT INTO measurements (compound, system_tested, reported_measurement) VALUES
  ('COc1ccc([C@H]2C[C@@H](n3ccc4c(N)nc(Cl)nc43)[C@H](O)[C@@H]2O)cc1', 'KMT9 (Homo sapiens, UniProt Q9Y5N5)', '100 to 1000 nM'),
  ('Nc1nc(Cl)nc2c1ccn2[C@@H]1C[C@H](c2ccc(O)cc2)[C@@H](O)[C@H]1O', 'KMT9 (Homo sapiens, UniProt Q9Y5N5)', '100 to 1000 nM'),
  ('CN1CC=C([C@H]2C[C@@H](n3cc(-c4nccs4)c4c(N)nc(Cl)nc43)[C@H](O)[C@@H]2O)CC1', 'KMT9 (Homo sapiens, UniProt Q9Y5N5)', '100 to 1000 nM'),
  ('COc1cc(OC)cc([C@H]2C[C@@H](n3cc(-c4ccn(C)n4)c4c(N)nc(Cl)nc43)[C@H](O)[C@@H]2O)c1', 'KMT9 (Homo sapiens, UniProt Q9Y5N5)', '1000 to 10000 nM'),
  ('Nc1nc(Cl)nc2c1ccn2[C@@H]1C[C@H](c2cccc(OC(F)F)c2)[C@@H](O)[C@H]1O', 'KMT9 (Homo sapiens, UniProt Q9Y5N5)', '1000 to 10000 nM'),
  ('Nc1cccc([C@H]2C[C@@H](n3ccc4c(N)ncnc43)[C@H](O)[C@@H]2O)c1', 'KMT9 (Homo sapiens, UniProt Q9Y5N5)', '> 10000 nM'),
  ('CN(CCCNCCc1ccc(F)cc1)C[C@H]1C[C@@H](n2cc(-c3nc(Cc4ccccc4)cs3)c3c(N)nc(Cl)nc32)[C@H](O)[C@@H]1O', 'KMT9 (Homo sapiens, UniProt Q9Y5N5)', '1000 to 10000 nM'),
  ('CN(CCCNCCc1ccc(F)cc1)C[C@H]1C[C@@H](n2cc(-c3nccs3)c3c(N)nc(Cl)nc32)[C@H](O)[C@@H]1O', 'KMT9 (Homo sapiens, UniProt Q9Y5N5)', '100 to 1000 nM'),
  ('COc1cccc([C@H]2C[C@@H](n3ccc4c(N)nc(Cl)nc43)[C@H](O)[C@@H]2O)c1', 'KMT9 (Homo sapiens, UniProt Q9Y5N5)', '100 to 1000 nM'),
  ('Nc1nc(Cl)nc2c1ccn2[C@@H]1C[C@H](c2ccc(=O)[nH]c2)[C@@H](O)[C@H]1O', 'KMT9 (Homo sapiens, UniProt Q9Y5N5)', '1000 to 10000 nM');

Qu. Entry `COc1cc(-c2cnsc2)cc([C@H]2C[C@@H](n3ccc4c(N)nc(Cl)nc43)[C@H](O)[C@@H]2O)c1` , system KMT9 (Homo sapiens, UniProt Q9Y5N5): what IC50 was measured?
Ans. 1000 to 10000 nM

Qu. Form: Entry = `COc1cc(OC)cc([C@H]2C[C@@H](n3cc(-c4ccn(Cc5ccccc5)n4)c4c(N)nc(Cl)nc43)[C@H](O)[C@@H]2O)c1` | System = KMT9 (Homo sapiens, UniProt Q9Y5N5) | IC50 = ____
Ans. 1000 to 10000 nM

Qu. KMT9 (Homo sapiens, UniProt Q9Y5N5) / IC50 / `COc1cccc([C@H]2C[C@@H](n3cc(-c4ccn(C)n4)c4c(N)nc(Cl)nc43)[C@H](O)[C@@H]2O)c1` : value?
Ans. 1000 to 10000 nM

Qu. What value of IC50 on KMT9 (Homo sapiens, UniProt Q9Y5N5) does CN1CCC[C@H]([C@H]2C[C@@H](n3cc(-c4nc(Cc5ccccc5)cs4)c4c(N)nc(Cl)nc43)[C@H](O)[C@@H]2O)C1 [Compound 597R] have?
Ans. 100 to 1000 nM

----------
# pKd listing for each entry below
system tested: KMT9 (Homo sapiens, UniProt Q9Y5N5)
assay method text: Microscale thermophoresis (MST) KMT9 binding
reported conditions: microscale thermophoresis, His-tag labelled KMT9 (20 nM); read-out: MST
pKd: −log10 of the molar value.

As a guide, the following entries are already answered.
INSERT INTO results (molecule, reported_measurement) VALUES
  ('CNc1ncnc2c1ccn2[C@@H]1C[C@H](CNCCC(=O)NCCc2ccccc2)[C@@H](O)[C@H]1O (racemic)', '< 6.00'),
  ('O=C1CCc2cn([C@@H]3C[C@H](CNCCCNCCc4ccccc4)[C@@H](O)[C@H]3O)c3ncnc(c23)N1', '6.00 to 7.00'),
  ('CNc1ncnc2c1ccn2[C@@H]1C[C@H](CNCCCNCCc2cccc(Oc3ccccc3)c2)[C@@H](O)[C@H]1O', '6.00 to 7.00'),
  ('CNc1ncnc2c1ccn2[C@@H]1C[C@H](CS(=O)(=O)CCCNCCc2ccccc2)[C@@H](O)[C@H]1O', '< 6.00'),
  ('Nc1ncnc2c1c(-c1ccncc1)cn2[C@@H]1C[C@H](CNCCCNCCc2ccccc2)[C@@H](O)[C@H]1O', '6.00 to 7.00'),
  ('CS(=O)(=O)n1ccc(-c2cn([C@@H]3C[C@H](CNCCCNCCc4ccccc4)[C@@H](O)[C@H]3O)c3ncnc(N)c23)n1', '≥ 8.00');

--- query ---
Qu. Need pKd of `CCN(CCCNCCc1ccc2ccccc2c1)C[C@H]1C[C@@H](n2ccc3c(NC)ncnc32)[C@H](O)[C@@H]1O` , thanks.
Ans. 6.00 to 7.00

----------
system tested: KMT9 (Homo sapiens, UniProt Q9Y5N5)
assay method text: KMT9 methyltransferase inhibition assay, 3H-SAM scintillation (entries 1-154)
Format: biochemical
reported conditions: entries 1-154: 3H-SAM assay, 25 nM KMT9, 5 μM ETF1
In this section, each of the compounds is paired with its reported IC50.

Qu. Endpoint output: IC50 of `CNc1ncnc2c1ccn2[C@@H]1C[C@H](CNCC(F)(F)CNCCc2ccc3ccccc3c2)[C@@H](O)[C@H]1O` . Value?
Ans. > 10 µM

----------
Overview of reported ΔTm at 500 µM across a group of molecules:
system tested: UniProt:Q9Y5N5
assay method text: KMT9 thermal shift assay (SyproOrange)
Assay type: binding
reported conditions: ΔTm class; 500 uM compound, 2 μM KMT9; read-out: Thermal shift

Check out these entries, answers already filled in.
INSERT INTO results (molecule, reported_endpoint, reported_measurement) VALUES
  ('CN(CCCNCCc1ccc(F)cc1)C[C@H]1C[C@@H](n2cc(-c3ccn(C)n3)c3cnc(Cl)nc32)[C@H](O)[C@@H]1O [Compound 644]', 'ΔTm at 500 µM', '≤ 10 °C'),
  ('CN(CCCNCCc1ccc(F)cc1)C[C@H]1C[C@@H](n2cc(-c3ccn(Cc4ccccc4)n3)c3cnc(Cl)nc32)[C@H](O)[C@@H]1O [Compound 642]', 'ΔTm at 500 µM', '15 to 20 °C'),
  ('Nc1nc(Cl)nc2c1c(-c1nc(Cc3ccccc3)cs1)cn2[C@@H]1C[C@H](CNCCCNCCc2ccc(F)cc2)[C@@H](O)[C@H]1O [Compound 646]', 'ΔTm at 500 µM', '> 20 °C'),
  ('Nc1ncnc2c1c(-c1nc(Cc3ccccc3)cs1)cn2[C@@H]1C[C@H]([C@@H]2CCNC2)[C@@H](O)[C@H]1O [Compound 589S]', 'ΔTm at 500 µM', '10 to 15 °C'),
  ('O[C@@H]1[C@H](O)[C@@H](C2CCCN(CCc3ccccc3)C2)C[C@H]1n1cc(-c2nc(Cc3ccccc3)cs2)c2cnc(Cl)nc21 (some centres unmarked) [Compound 518]', 'ΔTm at 500 µM', '≤ 10 °C');

Turning now to a further record.
Qu. Tell me the measured ΔTm at 500 µM of COc1csc(-c2cn([C@@H]3C[C@H](CNCCCNCCc4ccccc4)[C@@H](O)[C@H]3O)c3ncncc23)n1 [Compound 615] , please.
Ans. ≤ 10 °C
